- System: Trypanosoma cruzi
- experimentDescription: Trypanocidal activity against trypomastigote stage of Trypanosoma cruzi NINOA infected in NIH mouse blood after 24 hrs by optical microscopic method
measuredQuantity: LC50

Specify LC50 for O=C(O)c1cc(/N=N/c2ccc(S(=O)(=O)Nc3ccccn3)cc2)ccc1O , system Trypanosoma cruzi.
19.3 µg/mL

Specify LC50 for O=C(O)C(O)C(O)C(=O)O.O=C(c1ccc(F)cc1)C1CCN(CCn2c(=O)[nH]c3ccccc3c2=O)CC1 [KETANSERIN TARTRATE] , system Trypanosoma cruzi.
13.6 µg/mL

Specify LC50 for CCN1CCN(C(=O)N[C@@H](C(=O)N[C@@H]2C(=O)N3C(C(=O)[O-])=C(CSc4nnnn4C)CS[C@H]23)c2ccc(O)cc2)C(=O)C1=O.[Na+] [CEFOPERAZONE SODIUM] , system Trypanosoma cruzi.
25.8 µg/mL

Specify LC50 for O=C(Cn1ccnc1[N+](=O)[O-])NCc1ccccc1 , system Trypanosoma cruzi.
46.6 µg/mL
